test.method.notes: CASP1-PYCARD signaling inhibition in yeast, confirmatory test, counterassay for NLRP3 inhibitor program, one-dose (AID 488784)
assay.setup: yeast expressing Caspase-1-ASC, luminescence counter screen; at 10 µM; active compounds read high
Hit rate of the full screen: of about 1,000 compounds, about 700 (70%) were called active. So high a share suggests a set chosen from earlier hits. A selection follows.
Measured inhibition accompanies every entry in the list below.
quantity.measured: inhibition (%)

[[record]]
smiles_structure = "N#Cc1nc(Cc2ccccc2)oc1NCCc1ccccc1"
val = 56.8

[[record]]
smiles_structure = "O=C1CSC(=S)N1c1ccc(O)cc1"
val = 79.7

[[record]]
smiles_structure = "Cc1cccc(NC(=S)NC(=O)c2ccc(Br)o2)c1"
val = 76.2

[[record]]
smiles_structure = "Nc1c(-c2cccc(Cl)c2)cnn1-c1cccc([N+](=O)[O-])c1"
val = 53

[[record]]
smiles_structure = "COc1cc(N2C(=O)CSC2=S)cc(OC)c1OC"
val = 45.7

[[record]]
smiles_structure = "CCCN(CC1CC1)C(=S)NC(=O)c1ccccc1Br"
val = 53.1

[[record]]
smiles_structure = "Cc1ccc2cccc(S(=O)(=O)N3CCN(c4ccccc4F)CC3)c2n1"
val = 52.6

[[record]]
smiles_structure = "O=C(Oc1c(-c2ccco2)oc2ccccc2c1=O)c1cccnc1"
val = 58.5

[[record]]
smiles_structure = "COc1ccccc1OCc1nc2ccccc2s1"
val = 48.7

[[record]]
smiles_structure = "Cc1ccc(OCc2nc3ccccc3n2C)cc1"
val = 76.5


---

test.method.notes: CASP1-PYCARD signaling inhibition in yeast, confirmatory test, counterassay for NLRP3 inhibitor program, one-dose (AID 488784)
assay.setup: yeast expressing Caspase-1-ASC, luminescence counter screen; at 10 µM; active compounds read high
Among all 1,000 compounds or so, about 700 (70%) were called active. The set was probably picked from earlier hits. Only a sample is shown.
Measured inhibition accompanies every entry in the list below.
quantity.measured: inhibition

[[record]]
smiles_structure = "Cc1ccc(-c2nn(C(C)(C)C)c3ncnc(N)c23)cc1"
val = "96.3% (active)"

[[record]]
smiles_structure = "Cc1cc(C(=O)COc2ccc(Br)cc2F)c(C)n1C1CC1"
val = "60.1% (active)"

[[record]]
smiles_structure = "CCCNc1ncnc2sc(C)c(C)c12"
val = "50.8% (active)"

[[record]]
smiles_structure = "CC1(C)CCSC(/C=C/c2ccccc2)=N1"
val = "91.5% (active)"

[[record]]
smiles_structure = "Cn1c(=O)c(C(=O)Nc2ncccn2)c(O)c2ccccc21"
val = "49.2% (inactive)"

[[record]]
smiles_structure = "CCOC(=O)c1c(C)[nH]c(C(=O)COc2ccc3c(c2)OCO3)c1C"
val = "66.8% (active)"

[[record]]
smiles_structure = "Cc1ccc(CSc2nsc(C)c2C#N)cc1"
val = "60% (active)"

[[record]]
smiles_structure = "Cn1c(=NC(=O)c2ccco2)sc2cccc(F)c21"
val = "25% (inactive)"

[[record]]
smiles_structure = "C[C@@H]1C[C@@H]2O[C@H]2/C=C\\C=C\\C(=O)Cc2c(Cl)c(O)cc(O)c2C(=O)O1"
val = "48.6% (inactive)"

[[record]]
smiles_structure = "Cc1c(C(=O)N2CCCc3ccccc32)oc2ccccc12"
val = "49.6% (inactive)"

